# System: T. cruzi amastigotes in infected RAW264.7 cells
# protocol_description: Amastigote replication in host cells: FACS quantitation of GFP parasites released from infected RAW264.7 cells
# Type: cell-based, Trypanosoma cruzi
# test_parameters: GFPY parasite release from infected RAW264.7 cells, FACS after 6 days; mean ± SD of three independent experiments
measurement_kind: pIC50
In plain terms, pIC50 is the concentration in mol/L turned into minus its base-10 logarithm.

Exercise: Fill in the blank: the reported pIC50 of O=C(Cn1ccnc1[N+](=O)[O-])NCc1ccccc1 [benznidazole, reference compound] is ____.
Key: 5.49
